molecular target: PP2AC (Bos taurus, UniProt P67774); experiment: Phosphopeptide; format: biochemical, bovine
Sequence (P67774 whole entry): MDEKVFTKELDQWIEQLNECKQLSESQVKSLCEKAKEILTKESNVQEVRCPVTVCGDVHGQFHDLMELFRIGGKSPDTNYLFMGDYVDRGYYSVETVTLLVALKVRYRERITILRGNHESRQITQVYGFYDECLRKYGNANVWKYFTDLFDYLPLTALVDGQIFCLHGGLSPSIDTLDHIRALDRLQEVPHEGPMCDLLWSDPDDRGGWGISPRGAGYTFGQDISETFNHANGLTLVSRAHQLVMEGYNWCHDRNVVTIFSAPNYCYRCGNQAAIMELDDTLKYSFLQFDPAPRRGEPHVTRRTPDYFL
measured_quantity: IC50 (µM)
Hi! Could you send only the number? It should be in µM, unit omitted.

Query: Provide the documented IC50 with PP2AC (Bos taurus, UniProt P67774) as the system for CN1CCN(C(=O)C2C3CCC(O3)C2C(=O)O)CC1 (stereo not shown) [LB-100]
Reply: 1.27

###

test: in vitro; type: cell-based; details: human, EC50, cytotoxicity in U-937 cells, LB-100 and 500 nM dexamethasone; 72 hours; n=16
measured_quantity: pEC50
Conceptually, pEC50 converts a concentration in mol/L into minus its log10.

Query: Which value of pEC50 has been reported for CN1CCN(C(=O)C2C3CCC(O3)C2C(=O)O)CC1 (stereo not shown) [LB-100] in the records?
Reply: 5.26
